All figures here come from paper PMC6420652.

B1: Clover-AZIN (antizyme inhibitor with an N-terminal Clover tag) [human] / antizyme-mRuby2 (antizyme with a C-terminal mRuby2 tag) [human] (parent complex)
chain 1: MKGFIDDANYSVGLLDEGTNLGNVIDNYVYEHTLTGKNAFFVGDLGKIVKKHSQWQNVVAQIKPFYTVKCNSAPAVLEILAALGTGFACSSKNEMALVQELGVPPENIIYISPCKQVSQIKYAAKVGVNILTCDNEIELKKIARNHPNAKVLLHIATEDNIGGEEGNMKFGTTLKNCRHLLECAKELDVQIIGVKFHVSSACKESQVYVHALSDARCVFDMAGEIGFTMNMLDIGGGFTGTEFQLEEVNHVISPLLDIYFPEGSGVKIISEPGSYYVSSAFTLAVNIIAKKVVENDKFPSGVEKTGSDEPAFMYYMNDGVYGSFASKLSEDLNTIPEVHKKYKEDEPLFTSSLWGPSCDELDQIVESCLLPELNVGDWLIFDNMGADSFHEPSAFNDFQRPAIYYMMSFSDWYEMQDAGITSDSMMKNFFFVPSCIQLSQEDSFSAEA
chain 2: not shown

- Variants of: B1
- Method Summary: FRET titration; parent: 24 nM; read off a plot
pKd: −log10 of the molar value.
Readout Label: pKd

Some variants with known pKd results, for comparison:
Entry chain 1 F395A has what pKd?
~7.24

Please answer likewise for chain 1 K169A
~7.68

Now the variant chain 1 M168A
~7.68

Now the variant chain 1 K175A
~7.52

Note, next up: chain 1 S91A
~7.59

Would you mind doing chain 1 D134A as well?
~7.74

Could you do the same for chain 1 S393A , please?
~7.60

Same again, this time with chain 1 D423A
~7.64

Others:
Consider the variant shown here: chain 1 Q119A What is its recorded pKd?
~8.02

What do we get for chain 1 R144A ?
~8.00

// repeat for chain 1 N396A and report
~7.33
